- Measurement Target: Cbl-b (Homo sapiens, UniProt Q13191)
- Construct: Cbl-b-HiBit KI Jurkat Cells were purchased from Promega; host or cells: Cbl-b-HiBiT knock-in Jurkat cells
- Sequence (Q13191 whole entry): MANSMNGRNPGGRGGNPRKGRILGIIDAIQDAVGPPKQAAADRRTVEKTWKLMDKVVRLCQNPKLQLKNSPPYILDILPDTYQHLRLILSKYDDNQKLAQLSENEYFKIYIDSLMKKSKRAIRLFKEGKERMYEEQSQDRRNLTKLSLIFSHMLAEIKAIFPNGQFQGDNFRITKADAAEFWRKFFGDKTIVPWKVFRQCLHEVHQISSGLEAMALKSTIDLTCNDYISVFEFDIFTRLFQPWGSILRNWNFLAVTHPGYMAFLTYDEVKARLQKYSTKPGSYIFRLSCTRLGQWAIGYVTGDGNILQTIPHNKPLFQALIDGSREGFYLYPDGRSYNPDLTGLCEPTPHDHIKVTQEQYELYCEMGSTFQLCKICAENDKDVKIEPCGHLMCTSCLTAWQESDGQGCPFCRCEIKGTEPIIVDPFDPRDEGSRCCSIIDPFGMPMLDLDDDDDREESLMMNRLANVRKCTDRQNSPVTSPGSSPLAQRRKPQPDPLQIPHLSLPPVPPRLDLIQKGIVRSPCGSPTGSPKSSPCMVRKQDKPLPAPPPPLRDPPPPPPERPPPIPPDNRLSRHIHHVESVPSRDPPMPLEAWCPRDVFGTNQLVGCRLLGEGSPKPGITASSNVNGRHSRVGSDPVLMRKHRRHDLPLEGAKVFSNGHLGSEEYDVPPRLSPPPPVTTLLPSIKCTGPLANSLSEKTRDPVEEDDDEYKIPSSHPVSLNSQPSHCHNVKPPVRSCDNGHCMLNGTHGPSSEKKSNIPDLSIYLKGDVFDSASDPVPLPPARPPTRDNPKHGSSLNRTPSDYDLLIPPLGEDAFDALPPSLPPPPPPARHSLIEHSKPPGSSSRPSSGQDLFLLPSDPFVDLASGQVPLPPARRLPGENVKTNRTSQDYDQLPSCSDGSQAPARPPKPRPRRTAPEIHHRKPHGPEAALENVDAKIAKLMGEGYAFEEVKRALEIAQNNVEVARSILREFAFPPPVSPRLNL
- Test Method Notes: Cbl-b Degradation Method A (FACS, anti-Cbl-b antibody staining)
- Format: cell-based
- Test Conditions: Jurkat, Cbl-b-HiBit KI Jurkat Cells, incubated at least 20 hours; maximum degradation observed; read-out: Cbl-b Degredation Method A Dmax (%)
- Text: Cbl-b Degradation Method A Cbl-b-HiBit KI Jurkat Cells were purchased from Promega, and cell media consisted of RPMI 1640 with 10% FBS and 1% pen/strep. […] The concentration of an exemplary compound that leads to half maximal degradation (DC50) as well as the maximum degradation observed (Dmax, conventionally expressed as a percentage of control) is shown below in Table 2.
Could you please report measured Dmax for the items listed next?

Q) Input Cc1cc(N2CCC(O[C@H]3CC[C@H](CN4CCC5(CCN(c6cc7c(c(C(F)(F)F)c6)CN(c6cccc([C@]8(Cc9nncn9C)C[C@@H](C#N)C8)c6)C7=O)C5)C4)CC3)CC2)c(F)c2c1C(=O)N(C1CCC(=O)NC1=O)C2 (stereo partly shown) , output reported Dmax.
A) 35 to 70%

Q) Output Dmax of Cn1cnnc1[C@]1(c2cccc(N3Cc4c(cc(CN5CCC[C@H](CN6CCN(C[C@H]7CC[C@@H](OC8CCN(c9ccc%10c(c9F)CN(C9CCC(=O)NC9=O)C%10=O)CC8)CC7)CC6)C5)cc4C(F)(F)F)C3=O)c2)C[C@@H](C)C1 (stereo partly shown)
A) > 70%

Q) Please give the documented Dmax of Cn1cnnc1CC1(c2cccc(N3Cc4c(cc(N5CC6(CCN(CC7CCN(c8ccc9c(c8)C(=O)N(C8CCC(=O)NC8=O)C9=O)CC7)CC6)C5)cc4C(F)(F)F)C3=O)c2)COC1 (stereo not shown)
A) 35 to 70%

Q) Return value of Dmax for input CC1CN(Cc2cc3c(c(C(F)(F)F)c2)CN(c2cccc(C4(Cc5nncn5C)COC4)c2)C3=O)CCN1C[C@H]1CC[C@H](OC2CCN(c3ccc4c(c3F)CN(C3CCC(=O)NC3=O)C4=O)CC2)CC1 (stereo partly shown) , no commentary.
A) > 70%

---

Provide the reported DC50 of each item.
- Measurement Target: Cbl-b (Homo sapiens, UniProt Q13191)
- Construct: Cbl-b-HiBit KI Jurkat Cells were purchased from Promega; host or cells: Cbl-b-HiBiT knock-in Jurkat cells
- Test Method Notes: Cbl-b Degradation Method A (FACS, anti-Cbl-b antibody staining)
- Type: cell-based
- Test Conditions: Cbl-b-HiBit KI Jurkat Cells, incubated at least 20 hours; half maximal degradation; read-out: Cbl-b Degredation Method A IC50
- Description: Cbl-b Degradation Method A Cbl-b-HiBit KI Jurkat Cells were purchased from Promega, and cell media consisted of RPMI 1640 with 10% FBS and 1% pen/strep. […] The concentration of an exemplary compound that leads to half maximal degradation (DC50) as well as the maximum degradation observed (Dmax, conventionally expressed as a percentage of control) is shown below in Table 2.

Q) Using known records, supply DC50 for Cn1cnnc1CC1(c2cccc(-n3cc4c(C(F)(F)F)cc(CN5CCC[C@H](CN6CCN(C[C@H]7CC[C@@H](OC8CCN(c9ccc%10c(c9F)CN(C9CCC(=O)NC9=O)C%10=O)CC8)CC7)CC6)C5)cc4n3)c2)COC1 (stereo partly drawn)
A) < 0.005 µM

Q) Specify DC50 for Cn1cnnc1C[C@]1(c2cccc(N3Cc4c(cc(N5CC6(CCN(CC7(F)CCN(c8ccc9c(c8)C(=O)N(C8CCC(=O)NC8=O)C9=O)CC7)CC6)C5)cc4C(F)(F)F)C3=O)c2)C[C@H](C#N)C1 (stereo partly drawn) and stop.
A) 0.005 to 0.05 µM

Q) Dear colleague, please send me the reported DC50 for Cn1cnnc1CC1(c2cccc(N3Cc4c(cc(CN5CCN(C[C@H]6CC[C@H](OC7CCN(c8ccc9c(c8F)CN(C8CCC(=O)NC8=O)C9=O)CC7)CC6)CC5)cc4C(F)(F)F)C3=O)c2)COC1 (stereo partly drawn) when you can.
A) < 0.005 µM

Q) Let me know recorded DC50 for C[C@@H]1C[C@@H](CN2CCN(c3ccc4c(c3)C(=O)N(C3CCC(=O)NC3=O)C4=O)CC2)CN(Cc2cc3c(c(C(F)(F)F)c2)CN(c2cccc(C4(Cc5nncn5C)COC4)c2)C3=O)C1 (stereo partly drawn) , thanks.
A) > 0.5 µM

Q) Return the recorded DC50 value; entry: CC(c1cc2c(c(C(F)(F)F)c1)CN(c1cccc(C3(Cc4nncn4C)COC3)c1)C2=O)N1CCN(C[C@H]2CC[C@H](OC3CCN(c4ccc5c(c4F)CN(C4CCC(=O)NC4=O)C5=O)CC3)CC2)CC1 (single isomer, unassigned)
A) < 0.005 µM

Q) Report measured DC50; entry is Cn1cnnc1CC1(c2cccc(N3Cc4c(cc(CN5CCC[C@H](CN6CCC(C7CCN(c8ccc9c(c8)C(=O)N(C8CCC(=O)NC8=O)C9=O)CC7)CC6)C5)cc4C(F)(F)F)C3=O)c2)COC1 (stereo partly drawn)
A) > 0.5 µM

Q) Return DC50 (reported value) for this molecule: CC(C)n1c(=O)n(C2CCC(=O)NC2=O)c2cccc(N3CCC(O[C@H]4CC[C@H](CN5CCN(Cc6cc7c(c(C(F)(F)F)c6)CN(c6cccc([C@]8(Cc9nncn9C)C[C@@H](C#N)C8)c6)C7=O)C6(COC6)C5)CC4)CC3)c21 (stereo partly drawn)
A) 0.05 to 0.5 µM

Q) Read the entry Cn1cnnc1CC1(c2cccc(N3Cc4c(cc(N5CC(C6CN(c7ccc8c(c7)C(=O)N(C7CCC(=O)NC7=O)C8=O)C6)C5)cc4C(F)(F)F)C3=O)c2)COC1 (stereo not drawn) and write its reported DC50.
A) 0.005 to 0.05 µM

Q) // Input: Cn1cnnc1CC1(c2cccc(N3Cc4c(cc(CN5CCC(CN6CCC7(CC6)CCN(c6ccc8c(c6)C(=O)N(C6CCC(=O)NC6=O)C8=O)CC7)CC5)cc4C(F)(F)F)C3=O)c2)COC1 (stereo not drawn) . Output its DC50 only.
A) > 0.5 µM

---

- Measurement Target: Cbl-b (Homo sapiens, UniProt Q13191)
- Construct: Cbl-b-HiBit KI Jurkat Cells were purchased from Promega; host or cells: Cbl-b-HiBiT knock-in Jurkat cells
- Test Method Notes: Cbl-b Degradation Method A (FACS, anti-Cbl-b antibody staining)
- Format: cell-based
- Test Conditions: Jurkat, Cbl-b-HiBit KI Jurkat Cells, incubated at least 20 hours; maximum degradation observed; read-out: Cbl-b Degredation Method A Dmax (%)
Please provide measured Dmax for the entries that follow.

Q) Entry C[C@H]1CN(Cc2cc3c(c(C(F)(F)F)c2)CN(c2cccc(C4(Cc5nncn5C)COC4)c2)C3=O)CCN1CC1CCC(OC2CCN(c3ccc4c(c3F)CN(C3CCC(=O)NC3=O)C4=O)CC2)CC1 (stereo partly shown) [Example 237] needs its Dmax filled in; supply it.
A) > 70%

Q) Recall and state the measured Dmax for Cn1cnnc1CC1(c2cccc(N3Cc4c(cc(CN5CC[C@H](CN6CCN(C[C@H]7CC[C@H](OC8CCN(c9ccc%10c(c9F)CN(C9CCC(=O)NC9=O)C%10=O)CC8)CC7)CC6)C5)cc4C(F)(F)F)C3=O)c2)COC1 (stereo partly shown) [Example 10] .
A) > 70%

Q) For the molecule Cc1cc(N2CCC(O[C@H]3CC[C@H](CN4CCN(Cc5cc6c(c(C(F)(F)F)c5)CN(c5cccc([C@]7(Cc8nncn8C)C[C@H](C#N)C7)c5)C6=O)[C@@H](C)C4)CC3)CC2)c(F)c2c1C(=O)N(C1CCC(=O)NC1=O)C2 (stereo partly shown) [Example 220] , give its measured Dmax value.
A) > 70%

Q) Answer with the recorded Dmax of Cn1cnnc1CC1(c2cccc(N3Cc4c(cc(CN5CCCC(N6CCC(CN7CCC(CN8CCN(c9ccc%10c(c9)C(=O)N(C9CCC(=O)NC9=O)C%10=O)CC8)CC7)CC6)C5)cc4C(F)(F)F)C3=O)c2)COC1 (stereo not shown) [Example 109] only.
A) > 70%

---

- Measurement Target: Cbl-b (Homo sapiens, UniProt Q13191)
- Construct: Cbl-b-HiBit KI Jurkat Cells were purchased from Promega; host or cells: Cbl-b-HiBiT knock-in Jurkat cells
- Test Method Notes: Cbl-b Degradation Method A (FACS, anti-Cbl-b antibody staining)
- Assay type: cell-based
- Test Conditions: Jurkat, Cbl-b-HiBit KI Jurkat Cells, incubated at least 20 hours; maximum degradation observed; read-out: Cbl-b Degredation Method A Dmax (%)
What Dmax was measured for each of the following?

Q) Tell me measured Dmax for CC(C)n1c(=O)n(C2CCC(=O)NC2=O)c2cccc(N3CCC(O[C@H]4CC[C@H](CN5CCCN(Cc6cc7c(c(C(F)(F)F)c6)CN(c6cccc([C@]8(Cc9nncn9C)C[C@@H](C#N)C8)c6)C7=O)CC5)CC4)CC3)c21 (stereo partly drawn) [Example 289] please.
A) 35 to 70%

Q) Give me measured Dmax, please, for this compound: Cn1cnnc1CC1(c2cccc(N3Cc4c(cc(N5CCC(CN6CCC7(CC6)CN(c6ccc8c(c6)C(=O)N(C6CCC(=O)NC6=O)C8=O)C7)CC5)cc4C(F)(F)F)C3=O)c2)COC1 (stereo not drawn) [Example 23]
A) < 35%

Q) Report measured Dmax; entry is Cn1cnnc1CC1(c2cccc(N3Cc4c(cc(N5CCC(CC6CN(c7ccc8c(c7)C(=O)N(C7CCC(=O)NC7=O)C8=O)C6)CC5)cc4C(F)(F)F)C3=O)c2)COC1 (stereo not drawn) [Example 134]
A) < 35%
